target: T1, Gαo, Alexa Fluor 532-labeled (UniProt P59215 1-354, Alexa Fluor 532 label (sites not given)); test: FCPIA (flow cytometry protein interaction assay, Luminex beads); Gαo affinities for RGS4Δ51N wild type and mutants on beads, with AMF; conditions: both partners purified
T1 construct: G protein alpha subunit Gαo; Used in the presence of AMF (AlCl3, MgCl2, NaF and GDP) to put it into a transition state-like conformation; source: expressed, purified and labeled as described previously [5]
T1 sequence (P59215 whole entry): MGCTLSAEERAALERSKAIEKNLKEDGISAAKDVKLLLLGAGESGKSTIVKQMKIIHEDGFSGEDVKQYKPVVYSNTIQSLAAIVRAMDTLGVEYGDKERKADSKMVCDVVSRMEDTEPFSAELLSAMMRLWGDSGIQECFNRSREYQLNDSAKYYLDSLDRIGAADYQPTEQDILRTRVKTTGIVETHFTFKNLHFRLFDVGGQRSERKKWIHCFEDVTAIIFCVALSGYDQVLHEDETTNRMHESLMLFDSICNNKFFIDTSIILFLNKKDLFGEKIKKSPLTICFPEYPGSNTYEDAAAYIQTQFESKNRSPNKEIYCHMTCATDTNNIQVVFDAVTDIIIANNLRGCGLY
pKd: −log10 of the molar value.
Recorded pKd by entry
reported-property: pKd

{"columns": ["binder", "reported-property", "numeric-readout"],
 "data": [
  ["MBP-RGS4Δ51N, wild type, biotinylated (domain or fragment, UniProt P49799 52-205, looked up, biotin (sites not given), RGS4 from which the amphipathic N-terminal helix has been removed (RGS4Δ51N); Rat RGS4 is surmised from the group's earlier work; His6 lies between MBP and RGS4 (MBP-His6-RGS4Δ51N) with a TEV site; also called wild type RGS4-biotin; biotin-RGS4; source: expressed, purified and labeled as described previously [5]; not shown: MBP, N-terminal, kept) SQEEVKKWAESLENLINHECGLAAFKAFLKSEYSEENIDFWISCEEYKKIKSPSKLSPKAKKIYNEFISVQATKEVNLDSCTREETSRNMLEPTITCFDEAQKKIFNLMEKDSYRRFLKSRFYLDLTNPSSCGAEKQKGAKSSADCTSLVPQCA", "pKd", 7.94],
  ["MBP-RGS4Δ51N C71A (domain or fragment, UniProt P49799 52-205, looked up, biotin (sites not given), RGS4Δ51N; source: expressed, purified and labeled as described previously [5]; not shown: MBP, N-terminal, kept) SQEEVKKWAESLENLINHEAGLAAFKAFLKSEYSEENIDFWISCEEYKKIKSPSKLSPKAKKIYNEFISVQATKEVNLDSCTREETSRNMLEPTITCFDEAQKKIFNLMEKDSYRRFLKSRFYLDLTNPSSCGAEKQKGAKSSADCTSLVPQCA", "pKd", 7.91],
  ["MBP-RGS4Δ51N C132A (domain or fragment, UniProt P49799 52-205, looked up, biotin (sites not given), RGS4Δ51N; source: expressed, purified and labeled as described previously [5]; not shown: MBP, N-terminal, kept) SQEEVKKWAESLENLINHECGLAAFKAFLKSEYSEENIDFWISCEEYKKIKSPSKLSPKAKKIYNEFISVQATKEVNLDSATREETSRNMLEPTITCFDEAQKKIFNLMEKDSYRRFLKSRFYLDLTNPSSCGAEKQKGAKSSADCTSLVPQCA", "pKd", 8.10],
  ["MBP-RGS4Δ51N C95A (domain or fragment, UniProt P49799 52-205, looked up, biotin (sites not given), RGS4Δ51N; source: expressed, purified and labeled as described previously [5]; not shown: MBP, N-terminal, kept) SQEEVKKWAESLENLINHECGLAAFKAFLKSEYSEENIDFWISAEEYKKIKSPSKLSPKAKKIYNEFISVQATKEVNLDSCTREETSRNMLEPTITCFDEAQKKIFNLMEKDSYRRFLKSRFYLDLTNPSSCGAEKQKGAKSSADCTSLVPQCA", "pKd", 8.09]
]}
